Target: 5-LO (Homo sapiens)
Construct: incubating a test compound with heparinised human blood, prior to challenge with the calcium ionophore A23187; endogenous in cells
Sequence (P09917 whole entry): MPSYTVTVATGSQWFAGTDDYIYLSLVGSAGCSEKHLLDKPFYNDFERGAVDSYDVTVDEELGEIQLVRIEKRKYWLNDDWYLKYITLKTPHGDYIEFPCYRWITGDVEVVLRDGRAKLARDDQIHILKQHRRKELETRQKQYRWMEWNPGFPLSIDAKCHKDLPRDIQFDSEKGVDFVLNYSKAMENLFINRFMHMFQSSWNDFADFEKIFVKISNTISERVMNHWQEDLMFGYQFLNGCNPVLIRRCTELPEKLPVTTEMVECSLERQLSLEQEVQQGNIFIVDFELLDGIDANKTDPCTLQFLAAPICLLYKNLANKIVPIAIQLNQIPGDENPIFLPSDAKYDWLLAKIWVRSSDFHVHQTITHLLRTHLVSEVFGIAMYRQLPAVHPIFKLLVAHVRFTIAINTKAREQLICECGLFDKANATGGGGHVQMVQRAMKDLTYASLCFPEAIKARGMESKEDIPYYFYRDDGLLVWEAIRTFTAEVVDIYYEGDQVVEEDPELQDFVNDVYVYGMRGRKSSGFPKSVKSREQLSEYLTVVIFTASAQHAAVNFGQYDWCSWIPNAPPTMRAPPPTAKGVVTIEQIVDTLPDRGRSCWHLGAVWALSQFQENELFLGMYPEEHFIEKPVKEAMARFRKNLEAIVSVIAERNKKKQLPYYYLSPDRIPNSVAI
Experiment: Test b): heparinised human blood challenged with A23187, radioimmunoassay of LTB₄
Conditions: heparinised human blood, calcium ionophore A23187 challenge; read-out: IC₅₀ against LTB₄ in test b)
Each entry below carries its reported IC50.
Number only, in nM; omit the unit.

>  <MOLECULE>
CCC1(c2cccc(OCC#Cc3ccccn3)c2)COC(C)(C)O1 (centres unmarked)

>  <UNIT SYMBOL>
nM

>  <IC50>
800

$$$$

Next up:
// IC50 lookup, key: CCC1(c2cc(F)cc(OCc3ccc4c(ccc(=O)n4C)c3)c2)COC(C)(C)O1 (centres unmarked)
80
